// data source = ChEMBL document CHEMBL4725474

Attribute: pEC50
System: TMD8
Assay: Cytotoxicity against human TMD8 cells expressing MYD88 mutant assessed as cell killing measured after 72 hrs by CellTiter-Glo luminescent cell viability assay
Format: functional, cell-based
Details: Homo sapiens, TMD8, 72 h; read-out: EC50
Lab note — pEC50 values are minus log10 of concentrations in M.

| LINE_NOTATION | pEC50 |
| --- | --- |
| CN(C)C/C=C/C(=O)Nc1cccc(C(=O)Nc2ccc(NC(=O)c3cccc(-c4ccn[nH]4)n3)cc2)c1 | 4.97 |

Requested read-out pEC50, target or system TMD8, entry C=CC(=O)Nc1ccc(C(=O)Nc2ccc(NC(=O)c3cccc(-c4ccn[nH]4)n3)cc2)cc1
5.28

# repeat for C=CC(=O)Nc1cccc(C(=O)Nc2ccc(NC(=O)c3cccc(-c4ccn[nH]4)n3)cc2)c1
5.62
